tested on: RARb:RXRa (NR concentration 270 nM, RXRa partner concentration 90 nM); assay: PBM binding z-score (relative to random genomic background probes); higher = stronger binding; sequences stand for … in GC…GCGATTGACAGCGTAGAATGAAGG
measure.name: PBM binding z-score

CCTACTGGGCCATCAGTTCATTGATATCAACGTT : 0.462
TGAATGAGGTTATAAGACCAGGGAACGTTGCAAA : 1.29
CGAACTAGGTCATTGACATGACAGTGAATAGTAA : 3.62
GCTCGAAGGACAAGGTCAGAGCTTTGTCCGTAGA : 3.44
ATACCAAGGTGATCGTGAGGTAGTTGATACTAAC : 0.566

Observed PBM binding z-score on RARb:RXRa (NR concentration 270 nM, RXRa partner concentration 90 nM) for `CCGAGTAGGTTTTGGGGCATTCAGGCAACGGTGA` , please. 0.205

Also, `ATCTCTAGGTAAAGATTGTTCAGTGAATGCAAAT` please. 0.105

Try this sequence next: `GATACTGGGTCAAGGCCAGAGTACGCGTATTGAT` 3.48

Follow-up item: `TCTTCTAGATCAAGCAGGTTAAGAAAGCCTGAGT` 0.276

How about this sequence: `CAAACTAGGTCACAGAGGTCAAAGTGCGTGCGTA` 5.4

----------
Catalogue of PBM binding z-score readings, one per entry.
system: PPARg:RXRa DBDmut IVT, anti-RXR (DBD mutation: RXRa K156A/R161A, NR concentration 270 nM, RXRa partner concentration 90 nM); assay: PBM binding z-score (relative to random genomic background probes); higher = stronger binding; sequences stand for … in GC…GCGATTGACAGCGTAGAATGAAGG
Lab note: record the figure alone, no unit after it.

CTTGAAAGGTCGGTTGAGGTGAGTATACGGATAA : 0.154

Look up PBM binding z-score: `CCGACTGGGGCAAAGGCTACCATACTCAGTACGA` 2.79

Next: `CAAACTAGGTCAAGGTGAAAGTCGGTTTGTGCCA` 8.58

----------
Reported PBM binding z-score values follow for various sequences
system: THRa:RXRa (NR concentration 90 nM, RXRa partner concentration 90 nM); assay: PBM binding z-score (relative to random genomic background probes); higher = stronger binding; sequences stand for … in GC…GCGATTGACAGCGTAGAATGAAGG
Just the number, please.

ATATGTAGGTTACATCCGGGCCATTCAGGCTATG : 2.04

I'd like to know its PBM binding z-score. The sequence in question is `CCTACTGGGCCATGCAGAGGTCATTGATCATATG` 3.05

Here is the next sequence: `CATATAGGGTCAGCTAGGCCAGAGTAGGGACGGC` 3.37

Request: `TCTAGTTGGTCAAAGGTCCCACACTCGAAATGCG` 0.71

----------
tested on: RARg:RXRa (NR concentration 270 nM, RXRa partner concentration 90 nM); test: PBM binding z-score (relative to random genomic background probes); higher = stronger binding; sequences stand for … in GC…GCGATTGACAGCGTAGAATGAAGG
Reported values of PBM binding z-score for individual entries

Some solved entries appear below for comparison.
AGAACGAGGGCAATGAGATGATAGCACGGGTGGC : 0.982
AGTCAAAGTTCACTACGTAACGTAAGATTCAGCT : 4.55
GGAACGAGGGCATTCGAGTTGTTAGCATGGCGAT : 0.902

// PBM binding z-score lookup, key: `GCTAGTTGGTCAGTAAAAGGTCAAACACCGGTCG` 5.65

Please give the result for `CCAGACAGGTGAGAAGGTAACTCATCCTCGATTA` too. 0.511

What about this sequence? `AGTCAAAGTTCACTAGGTAACGTTAGATTCAGCT` 4.93

Similarly, `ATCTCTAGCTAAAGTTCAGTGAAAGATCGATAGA` ? 1.76

Same question for `ATCTCTAGGTAAAGCTCAGTGAAAGATCGATAGA` please. 0.103

Also need `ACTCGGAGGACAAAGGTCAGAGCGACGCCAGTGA` , thanks. 6.19

Ok, now `CGAACTAGGTCAAAACAGGACAGTGAAGGATGAT` 3.48
